# Lookup of reported MFI keyed by entry
Molecular target: DLL3 endogenously expressed on NCI-H82 cells (UniProt Q9NYJ7)
Sequence (Q9NYJ7 27-618): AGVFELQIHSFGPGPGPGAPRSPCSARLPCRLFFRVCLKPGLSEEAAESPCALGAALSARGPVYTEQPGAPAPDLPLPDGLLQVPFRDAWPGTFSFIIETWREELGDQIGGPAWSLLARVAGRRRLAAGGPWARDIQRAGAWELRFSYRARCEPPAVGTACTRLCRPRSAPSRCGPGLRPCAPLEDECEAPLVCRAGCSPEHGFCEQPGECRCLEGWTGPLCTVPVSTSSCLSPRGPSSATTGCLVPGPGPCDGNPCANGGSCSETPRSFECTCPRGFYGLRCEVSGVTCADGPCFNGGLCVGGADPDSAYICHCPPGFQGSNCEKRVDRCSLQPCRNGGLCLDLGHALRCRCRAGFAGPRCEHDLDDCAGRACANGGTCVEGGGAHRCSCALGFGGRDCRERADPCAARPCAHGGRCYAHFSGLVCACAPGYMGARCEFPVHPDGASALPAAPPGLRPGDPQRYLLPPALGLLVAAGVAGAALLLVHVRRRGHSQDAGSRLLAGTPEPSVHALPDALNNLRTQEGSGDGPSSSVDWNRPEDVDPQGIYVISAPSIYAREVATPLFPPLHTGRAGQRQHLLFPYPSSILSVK
Assay: FACS on NCI-H82 cells; antibody 0.0064 nM
Answer using only a numeral; do not append any unit.

Worked examples, 4 binders total:
binder	MFI
BI3 (antibody, human IgG1, kappa, V domains shown) VH: QVQLVQSGAEVKKPGASVKVSCKASGYTFTSYYVHWVRQAPGQGLEWMVIINPGGGTTSYAQKFLGRVTMTRDTSTNTVYMELKSLRSEDTAVYYCARGEAVTGNYFYYGMDVWGQGTTVTVSS VL: DIQMTQSPSAMSASVGDRVTITCRASQGISNYLVWFQQKPGKAPKRLIYAVSSLYSGVPSRFSGSGSGTEFTLTISSLQPEDFATYYCLQHDSYPYTFGQGTKLEIKR	121
Hab015VL5VH5a-hFc (scFv, part only; not given: scFv linker and human IgG1 Fc, V domains shown, not shown: another chain or arm of the molecule; a dimerising Fc or GST; small tags and cut ends) VL: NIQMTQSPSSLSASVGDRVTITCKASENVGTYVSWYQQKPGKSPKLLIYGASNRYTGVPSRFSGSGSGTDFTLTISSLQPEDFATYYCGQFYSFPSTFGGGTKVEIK VH: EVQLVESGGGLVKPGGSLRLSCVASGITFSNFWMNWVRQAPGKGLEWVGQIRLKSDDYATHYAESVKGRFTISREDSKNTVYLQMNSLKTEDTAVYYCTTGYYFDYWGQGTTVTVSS	139
Hab008L3H2a-hFc (scFv, part only; not given: VL-VH linker and human IgG1 Fc, V domains shown, not shown: another chain or arm of the molecule; a dimerising Fc or GST; small tags and cut ends) VL: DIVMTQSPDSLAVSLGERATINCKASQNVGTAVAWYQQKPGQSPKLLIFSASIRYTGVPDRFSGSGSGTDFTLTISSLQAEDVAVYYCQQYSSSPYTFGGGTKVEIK VH: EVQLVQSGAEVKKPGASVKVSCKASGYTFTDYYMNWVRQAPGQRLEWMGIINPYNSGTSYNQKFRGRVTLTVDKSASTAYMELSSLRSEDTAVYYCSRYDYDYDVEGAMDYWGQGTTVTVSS	89
Hab008L1H2a-hFc (scFv, part only; not given: VL-VH linker and human IgG1 Fc, V domains shown, not shown: another chain or arm of the molecule; a dimerising Fc or GST; small tags and cut ends) VL: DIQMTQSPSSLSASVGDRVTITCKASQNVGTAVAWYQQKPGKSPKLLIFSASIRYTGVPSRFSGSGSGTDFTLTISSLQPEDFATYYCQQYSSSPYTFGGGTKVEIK VH: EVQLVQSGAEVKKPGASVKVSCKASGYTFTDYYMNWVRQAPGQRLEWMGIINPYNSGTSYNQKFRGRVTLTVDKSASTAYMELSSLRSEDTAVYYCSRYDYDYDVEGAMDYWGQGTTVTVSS	106

# input for lookup
Please supply the value of reported MFI for the item mab015 scFv-hFc (Fc fusion, part only; not given: linker and human IgG1 Fc, not shown: a dimerising Fc or GST) chain, part: NIVMTQSPKSMSMSVGERVTLSCKASENVGTYVSWFQQKPEQSPKLLIYGASNRYTGVPDRFTGSGSATDFTLTISSVQAEDLADYHCGQFYSFPCTFGGGTKLEIKEVKLEESGGGLVQPGGSMKLSCVASGITFSNFWMNWVRQSPEKGLEWVAQIRLKSDDYATHYAESVKGRFTISRDDSKGSVYLQMNNLRTEDTGIHYCTTGYYFDYWGQGTTLTVSS 135

Recorded values, source patent EP4786492A1.
